Source of measurements: PubChem BioAssay (NCI)

test system: ACHN renal; assay: NCI-60 one-dose screen, 48 h (100 = growth as untreated, 0 = no growth, -100 = all killed); conditions: 10 µM unless noted
The panel holds about 83,000 compounds, 20% with a hit somewhere; the sample as a whole holds those more often. Calls of active or inactive are those of the source. The calls were made as follows: active = growth percent below 10; inactive = the rest.
property_measured: growth

                                   molecule          observed
0  CN1CCN(c2ccc3c(C(N)=O)c(NC(=O)c4ccc(C(C)(C)C)cc4)sc3c2)CC1  96.4% (inactive)
1  C=C(C)C(=O)O[C@H]1C[C@@]2(C)OC(=CC2=O)[C@H](C)[C@H](O)[C@H]2OC(=O)C(=C)[C@@H]21  31.9% (inactive)
2  O=C1c2c(c3c4cc(Br)ccc4[nH]c3c3ccc4ccccc4c23)C(=O)N1CCN1CCNCC1  69.6% (inactive)
3  COc1ccc(-c2nnc(/N=C3/C(=O)Nc4ccc(Br)cc43)o2)cc1  93.7% (inactive)
4  CS(=O)(=O)c1nccc(-c2c(-c3ccc(F)c(OCc4ccccc4)c3)nc3sccn23)n1  93.4% (inactive)
5  O=c1cc(-c2ccccc2)nc2sc(-c3c[nH]c4ccc(F)cc34)nn12    30% (inactive)
6  CNC(=O)c1cc(Oc2ccc3nc(NC(=O)c4ccc(CN5CCN(C)CC5)c(C(F)(F)F)c4)sc3c2)ccn1  76.9% (inactive)
7  O=C(COc1ccc(C2SCC(=O)N2c2ccccc2)cc1)c1ccccc1 (centres undefined)  92.5% (inactive)
8  CC1CCc2c(sc3nc(SCC(=O)N/N=C/c4ccc(Cl)cc4)n(-c4ccccc4)c(=O)c23)C1 (centres undefined)  81.1% (inactive)

* * *

tested on: SF-268 CNS; test: NCI-60 one-dose screen, 48 h (100 = growth as untreated, 0 = no growth, -100 = all killed); settings: 10 µM unless noted
Compounds without any hit were thinned out: in the full panel of roughly 83,000, 20% have a hit.
property_measured: growth (%)

>>> df
                                   molecule  property_measured  observed
0  CCCC(=O)NC(c1cccnc1)c1cc(C(C)=O)c2cccnc2c1O (stereo not given)             growth      27.2
1  COc1ccc(NS(=O)(=O)c2ccc(-c3cnc(C4CC4)o3)cc2)cc1Cl             growth      66.1
2  C(=C(\C1=NCCN1)n1cnc2ccccc21)/c1ccc2ccccc2c1             growth      81.8
3           CN1C(=O)/C(=C/C=C/c2ccco2)SC1=S             growth      91.2
4  Nc1nc(N)c2c(n1)NC(c1ccc(Cl)cc1)CC(c1ccc(Nc3nc(NCCO)nc(Nc4ccc(Cl)cc4)n3)cc1)=N2 (stereo not given)             growth      51.4

* * *

tested on: SK-MEL-28 melanoma; test: NCI-60 one-dose screen, 48 h (100 = growth as untreated, 0 = no growth, -100 = all killed); details: 10 µM unless noted
The panel holds about 83,000 compounds, 20% with a hit somewhere; the sample as a whole holds those more often.
Values of growth strictly less than 30% map to 1, and values of at least 30% map to 0.

>>> print(df.to_string())
                                chem_smiles  assigned_category
0  C#C[C@]1(O)CC[C@H]2[C@@H]3CC=C4c5sc(Nc6cccc(C)n6)nc5CC[C@]4(C)[C@H]3CC[C@@]21C                  1
1  COc1cc(/C=C/C(=O)c2ccc(NC(=O)COc3cccc4cccnc34)cc2)cc(OC)c1OC                  0
2  CCCCOc1ccc(S(=O)(=O)N2CCN(c3nccc(N4CCOCC4)n3)CC2)cc1                  1
3  C/C(=N\NC(=S)Nc1ccc(Br)cc1)c1cc2ccccc2oc1=O                  1
4  NS(=O)(=O)c1ccc(Nc2nc(N/N=C/c3ccc(C(F)(F)F)cc3)nc(Nc3ccccc3)n2)cc1                  1
5  CN(c1ccc(Br)cc1)S(=O)(=O)c1ccc(-c2cnc(C3CC3)o2)cc1                  0
6           CN1C(=O)/C(=C/C=C/c2ccco2)SC1=S                  0
7  O=C(Nc1ccc(-c2nc(-c3cccc(O)c3)c(-c3ccnc(Br)c3)[nH]2)cc1)c1ccccc1                  0

* * *

tested on: NCI/ADR-RES ovarian; assay: NCI-60 one-dose screen, 48 h; details: 10 µM unless noted
The panel holds about 83,000 compounds, 20% with a hit somewhere; the sample as a whole holds those more often. The source made the active and inactive calls. Rule for the calls: active = growth percent below 10; inactive = the rest.
Outcomes: active, inactive

molecule	system	assigned_category
CCOC(=O)Nc1cccc(-n2cnc3cc(-c4ccc(O)cc4)ccc32)c1	NCI/ADR-RES ovarian	active
CC(C)(C)OC(=O)N1CCN(S(=O)(=O)/N=C2\NC(=O)NC2=C(Cl)Cl)CC1	NCI/ADR-RES ovarian	inactive
COC(=O)Nc1ccc(-c2nc(-c3cccc(O)c3)c(-c3ccnc(Br)c3)[nH]2)cc1	NCI/ADR-RES ovarian	inactive
COC[C@@]1(C)CC[C@]2(C)CC[C@]3(C)C(=CC[C@@H]4[C@@]5(C)CCCNC(C)(C)[C@@H]5CC[C@]43C)C2C1 (stereo not given in full)	NCI/ADR-RES ovarian	inactive
COc1cnc2c(c1)C(=O)c1c-2n(CCCn2ccnc2)c(=O)c2cc(OC)c(OC)cc12	NCI/ADR-RES ovarian	active
COc1cc(/C=N/n2cnc3oc(-c4ccccc4)cc3c2=N)cc(CN2CCN(C)CC2)c1O	NCI/ADR-RES ovarian	inactive
CC[C@H](C)[C@H]1NC(=O)[C@@H]([C@H](O)C(C)C)NC(=O)[C@@H](C)N(C)C(=O)[C@H](C)N(C)C(=O)[C@H](CC(C)C)NC(=O)[C@H](CC(C)C)N(C)C(=O)[C@H](C)N(C)C1=O	NCI/ADR-RES ovarian	inactive
COc1cc2cc(Oc3ccc(NC(=O)Nc4cc(C(F)(F)F)cc(C(F)(F)F)c4)cc3)c(C)nc2cc1OCCN(C)C	NCI/ADR-RES ovarian	inactive
CN(c1ccc(F)cc1)S(=O)(=O)c1ccc(-c2cnc(C3CC3)o2)cc1	NCI/ADR-RES ovarian	active
Nc1nc(N)c2c(n1)NC(c1ccc(Cl)cc1)CC(c1ccc(Nc3nc(NCCO)nc(Nc4ccc(Cl)cc4)n3)cc1)=N2 (stereo not given)	NCI/ADR-RES ovarian	inactive
CCNC(=O)Oc1ccc(/C(=C(/C)c2ccc(Cl)cc2)c2ccc(OCCN3CCCC3)cc2)cc1	NCI/ADR-RES ovarian	inactive
CCOC(=O)C1=C(C)Nc2nnc(Nc3ccccc3)n2C1c1ccccc1 (stereo not given)	NCI/ADR-RES ovarian	inactive
CC(=O)NC(C)(C)C(=O)N[C@@H](C)C(=O)NC(C)(C)C(=O)N[C@@H](C)C(=O)NC(C)(C)C(=O)N[C@@H](C)C(=O)N[C@@H](CCC(N)=O)C(=O)NC(C)(C)C(=O)N[C@H](C(=O)NC(C)(C)C(=O)NCC(=O)N[C@@H](CC(C)C)C(=O)NC(C)(C)C(=O)N1CCC[C@H]1C(=O)N[C@H](C(=O)NC(C)(C)C(=O)NC(C)(C)C(=O)N[C@@H](CCC(N)=O)C(=O)N[C@@H](CCC(N)=O)C(=O)N[C@H](CO)CC1CCCCC1)C(C)C)C(C)C	NCI/ADR-RES ovarian	inactive
C=C(C)C(=O)O[C@H]1C[C@@]2(C)OC(=CC2=O)/C(CO)=C\[C@H]2OC(=O)C(=C)[C@H]12	NCI/ADR-RES ovarian	inactive
O=C1NC(=O)c2c1c1c3ccccc3ccc1c1[nH]c3ccccc3c21	NCI/ADR-RES ovarian	active
CCOC(=O)C1=C(C)Nc2nc3ccccc3n2C1c1ccccc1 (stereo not given)	NCI/ADR-RES ovarian	inactive
CCOC(=O)/C(F)=C/C1CC1C1CCCCC1 (stereo not given)	NCI/ADR-RES ovarian	inactive
C#CCOc1ccc(/C=N/Nc2nc(-c3cc4cc(Br)cc(Br)c4oc3=O)cs2)cc1	NCI/ADR-RES ovarian	inactive
N#C/C(=C\c1ccc(N2CCCCC2)cc1)C(=O)Nc1sc2c(c1C#N)CCC2	NCI/ADR-RES ovarian	inactive
CC1=CC(=O)CC(C)(C)[C@@]1(O)/C=C/C(C)=C\C(=O)O	NCI/ADR-RES ovarian	active
CCOC(=O)c1ccc(N/C=C/C(=O)c2ccccc2)cc1	NCI/ADR-RES ovarian	inactive
COc1cc(/C=N/n2cnc3oc(-c4ccccc4)cc3c2=N)cc(CN2CCOCC2)c1O	NCI/ADR-RES ovarian	inactive
COc1ccc(N2CCN(C(=O)CSc3ccc(-c4nc5cc(C)c(C)cc5[nH]4)cn3)CC2)cc1	NCI/ADR-RES ovarian	inactive
N/C(=N\OC(=O)CSc1nc2ccccc2s1)c1ccc(Cl)cc1	NCI/ADR-RES ovarian	inactive
CCOC(=O)C1=C(C)Nc2nc3ccccc3n2C1c1cccc(Br)c1 (stereo not given)	NCI/ADR-RES ovarian	inactive
CS(=O)(=O)c1nccc(-c2c(-c3ccc(F)c(OCc4ccccc4)c3)nc3sccn23)n1	NCI/ADR-RES ovarian	inactive
CCCC(=O)NC(c1cccnc1)c1cc(Cl)c2cccnc2c1O (stereo not given)	NCI/ADR-RES ovarian	inactive
CNC(=O)c1cc(Oc2ccc3nc(NC(=O)c4cccc(C(F)(F)F)c4)sc3c2)ccn1	NCI/ADR-RES ovarian	inactive
Cc1cnc2nc(NN)[nH]n12	NCI/ADR-RES ovarian	inactive
Nc1cc(F)ccc1NC(=O)c1ccc(NC(=O)C/C=C/c2cccnc2)cn1	NCI/ADR-RES ovarian	inactive
COc1ccc(CN2C(=O)/C(=C/c3nc(CO)cs3)SC2=S)cc1	NCI/ADR-RES ovarian	inactive
Oc1ccc(CSc2nnc(-c3cnccn3)n2-c2ccccc2)c2cccnc12	NCI/ADR-RES ovarian	inactive
O=C1[C@H]2Cc3c([nH]c4ccccc34)[C@@H](c3ccc(Cl)cc3)N2C(=O)CN1C1CCN(Cc2c(Cl)cccc2Cl)CC1	NCI/ADR-RES ovarian	inactive
O=C1Nc2ccc(Cl)cc2/C1=C/c1ccc(OCc2ccc(F)cc2)cc1	NCI/ADR-RES ovarian	inactive
O=C(COc1cccc2cccnc12)Nc1ccc(C(=O)/C=C/c2ccc(Cl)cc2)cc1	NCI/ADR-RES ovarian	inactive
